meta.source: ChEMBL document CHEMBL3244203

We begin with a simple list: items and their reported pA2.
# measurement_description: Competitive antagonist activity at alpha-adrenergic receptor in New Zealand rabbit aorta assessed as inhibition of methoxamine-induced contraction incubated for 1 hr
# Format: tissue-based, Oryctolagus cuniculus
// print number alone

Reference set, count: 5
c1ccc2c(c1)OC[C@@H](CN1CCCCC1)O2	5.86
c1ccc2c(c1)OCC(CN1CCN(CC3COc4ccccc4O3)CC1)O2 (configuration not stated)	7.53
c1ccc2c(c1)OC[C@@H](CN1CCN(C[C@@H]3COc4ccccc4O3)CC1)O2	6.38
CCN(CC)C[C@H]1COc2ccccc2O1	5.6
CCN(CC)C[C@@H]1COc2ccccc2O1	5.26

Prompt: Quick one: give measured pA2 for c1ccc2c(c1)OC[C@H](CN1CCCCC1)O2
Completion: 7.12

Prompt: Quick one: give measured pA2 for c1ccc2c(c1)OC[C@H](CN1CCN(C[C@H]3COc4ccccc4O3)CC1)O2
Completion: 7.66
